Assay: Metabolic stability in human liver microsomes assessed as drug remaining at 1 mg/mL after 30 mins by HPLC
Assay type: ADME, Microsome
Settings: read-out: Stability
# maps each entry to its remaining at 0.5 h, 1 mg/mL
The answer is to be given in %; state only the numeric part.

>>> value("C=C(C)[C@@H]1CC[C@]2(C(=O)NCCCCCCCC(=O)O)CC[C@]3(C)[C@H](CC[C@@H]4[C@@]5(C)CC[C@H](O)C(C)(C)[C@@H]5CC[C@]43C)[C@@H]12")
61.9

Exam item: Report measured remaining at 0.5 h, 1 mg/mL; entry is `C=C(C)[C@@H]1CC[C@]2(C(=O)N3CCC(CCCC(=O)O)CC3)CC[C@]3(C)[C@H](CC[C@@H]4[C@@]5(C)CC[C@H](O)C(C)(C)[C@@H]5CC[C@]43C)[C@@H]12`
Marked response: 81.4

====

Test: Therapeutic index, ratio of CC50 for human MT4 cells to EC50 for HIV1 NL4-3
Assay type: cell-based
Details: read-out: TI
measurement kind: selectivity ratio

Sample answers from the record:
>>> value("C=C(COCCN1CCOCC1)[C@@H]1CC[C@]2(C(=O)NCCCCCCCC(=O)NC)CC[C@]3(C)[C@H](CC[C@@H]4[C@@]5(C)CC[C@H](O)C(C)(C)[C@@H]5CC[C@]43C)[C@@H]12")
"> 138"
>>> value("C=C(C)[C@@H]1CC[C@]2(C(=O)N3CCC(CCCC(=O)NCCN4CCOCC4)CC3)CC[C@]3(C)[C@H](CC[C@@H]4[C@@]5(C)CC[C@H](OC(=O)CC(C)(C)C(=O)O)C(C)(C)[C@@H]5CC[C@]43C)[C@@H]12")
284
>>> value("C=C(C)[C@@H]1CC[C@]2(C(=O)NCCCCCCCNC(C)=O)CC[C@]3(C)[C@H](CC[C@@H]4[C@@]5(C)CC[C@H](O)C(C)(C)[C@@H]5CC[C@]43C)[C@@H]12")
"> 150"
>>> value("C=C(C)[C@@H]1CC[C@]2(C(=O)N3CCC(CCCC(=O)N4CCOCC4)CC3)CC[C@]3(C)[C@H](CC[C@@H]4[C@@]5(C)CC[C@H](OC(=O)CC(C)(C)C(=O)O)C(C)(C)[C@@H]5CC[C@]43C)[C@@H]12")
121

// next entry
Exam item: Report measured selectivity ratio; entry is `C=C(C)[C@@H]1CC[C@]2(C(=O)N3CCC(CCCC(=O)NCCCN4CCOCC4)CC3)CC[C@]3(C)[C@H](CC[C@@H]4[C@@]5(C)CC[C@H](OC(=O)CC(C)(C)C(=O)O)C(C)(C)[C@@H]5CC[C@]43C)[C@@H]12`
Marked response: 246

====

# maps each entry to its pEC50
System: Human immunodeficiency virus 1
Assay: Antiviral activity against HIV1 NL4-3 infected in human MT4 cells assessed as p24 antigen level after 4 days by ELISA
Assay type: functional, organism-based
Conditions: Human immunodeficiency virus 1, NL4-3, MT4, 96 h
// scale note: pEC50 = -log10(conc_M); give the bare number

>>> value("C=C(C)[C@@H]1CC[C@]2(C(=O)N3CCC(CCCC(=O)NCCCN4CCOCC4)CC3)CC[C@]3(C)[C@H](CC[C@@H]4[C@@]5(C)CC[C@H](OC(=O)CC(C)(C)C(=O)O)C(C)(C)[C@@H]5CC[C@]43C)[C@@H]12")
7.51

Exam item: Report measured pEC50; entry is `C=C(C)[C@@H]1CC[C@]2(C(=O)NCCCCCCCNC(C)=O)CC[C@]3(C)[C@H](CC[C@@H]4[C@@]5(C)CC[C@H](O)C(C)(C)[C@@H]5CC[C@]43C)[C@@H]12`
Marked response: 7.04

Exam item: Report measured pEC50; entry is `C=C(C)[C@@H]1CC[C@]2(C(=O)N3CCC(CCCC(=O)NC)CC3)CC[C@]3(C)[C@H](CC[C@@H]4[C@@]5(C)CC[C@H](OC(=O)CC(C)(C)C(=O)O)C(C)(C)[C@@H]5CC[C@]43C)[C@@H]12`
Marked response: 6.62

Exam item: Report measured pEC50; entry is `C=C(C)[C@@H]1CC[C@]2(C(=O)N3CCC(CCCC(=O)N4CCOCC4)CC3)CC[C@]3(C)[C@H](CC[C@@H]4[C@@]5(C)CC[C@H](OC(=O)CC(C)(C)C(=O)O)C(C)(C)[C@@H]5CC[C@]43C)[C@@H]12`
Marked response: 7.15

====

Test: Therapeutic index, ratio of CC50 for human MT2 cells to EC50 for HIV1 3B
Type: cell-based
Settings: read-out: TI
Short version: selectivity ratio at least 10 is t, less is f.

Exam item: Kindly determine if selectivity ratio recorded for `C=C(CBr)[C@@H]1CC[C@]2(C(=O)NCCCCCCCC(=O)O)CC[C@]3(C)[C@H](CC[C@@H]4[C@@]5(C)CC[C@H](O)C(C)(C)[C@@H]5CC[C@]43C)[C@@H]12` is above or exactly 10.
Marked response: t

Exam item: Kindly determine if selectivity ratio recorded for `C=C(C)[C@@H]1CC[C@]2(C(=O)N3CCC(CCCC(=O)O)CC3)CC[C@]3(C)[C@H](CC[C@@H]4[C@@]5(C)CC[C@H](OC(=O)CC(C)(C)C(=O)O)C(C)(C)[C@@H]5CC[C@]43C)[C@@H]12` is above or exactly 10.
Marked response: t

Exam item: Kindly determine if selectivity ratio recorded for `C=C(COCCc1ccc(Cl)cc1)[C@@H]1CC[C@]2(C(=O)N[C@@H](CC(C)C)C(=O)O)CC[C@]3(C)[C@H](CC[C@@H]4[C@@]5(C)CC[C@H](O)C(C)(C)[C@@H]5CC[C@]43C)[C@@H]12` is above or exactly 10.
Marked response: f

Exam item: Kindly determine if selectivity ratio recorded for `C=C(C)[C@@H]1CC[C@]2(C(=O)N3CCC(CCCC(=O)NCCCN4CCOCC4)CC3)CC[C@]3(C)[C@H](CC[C@@H]4[C@@]5(C)CC[C@H](OC(=O)CC(C)(C)C(=O)O)C(C)(C)[C@@H]5CC[C@]43C)[C@@H]12` is above or exactly 10.
Marked response: t

====

System: MT4
Test: Cytotoxicity against human MT4 cells by XTT assay
Assay type: cell-based
# maps each entry to its CC50
The answer is to be given in µM; state only the numeric part.

Sample answers from the record:
>>> value("C=C(C)[C@@H]1CC[C@]2(C(=O)N3CCC(CCCC(=O)NCCCN4CCOCC4)CC3)CC[C@]3(C)[C@H](CC[C@@H]4[C@@]5(C)CC[C@H](OC(=O)CC(C)(C)C(=O)O)C(C)(C)[C@@H]5CC[C@]43C)[C@@H]12")
8.6
>>> value("C=C(C)[C@@H]1CC[C@]2(C(=O)N3CCC(CCCC(=O)NCCN4CCOCC4)CC3)CC[C@]3(C)[C@H](CC[C@@H]4[C@@]5(C)CC[C@H](OC(=O)CC(C)(C)C(=O)O)C(C)(C)[C@@H]5CC[C@]43C)[C@@H]12")
8.5

// next entry
Exam item: Report measured CC50; entry is `C=C(C)[C@@H]1CC[C@]2(C(=O)N3CCC(CCCC(=O)N4CCOCC4)CC3)CC[C@]3(C)[C@H](CC[C@@H]4[C@@]5(C)CC[C@H](OC(=O)CC(C)(C)C(=O)O)C(C)(C)[C@@H]5CC[C@]43C)[C@@H]12`
Marked response: 8.8

====

Experiment: Therapeutic index, ratio of CC50 for human MT2 cells to EC50 for HIV1 3B
Assay type: cell-based
Settings: read-out: TI
measurement kind: selectivity ratio
I'd appreciate a reply containing only the number, no unit.

>>> value("C=C(C)[C@@H]1CC[C@]2(C(=O)N3CCC(CCCC(=O)O)CC3)CC[C@]3(C)[C@H](CC[C@@H]4[C@@]5(C)CC[C@H](OC(=O)CCC(C)(C)C(=O)O)C(C)(C)[C@@H]5CC[C@]43C)[C@@H]12")
145

// next entry
Exam item: Report measured selectivity ratio; entry is `C=C(COCCN1CCOCC1)[C@@H]1CC[C@]2(C(=O)NCCCCCCCC(=O)NC)CC[C@]3(C)[C@H](CC[C@@H]4[C@@]5(C)CC[C@H](O)C(C)(C)[C@@H]5CC[C@]43C)[C@@H]12`
Marked response: 250

====

Test system: Human immunodeficiency virus 1
Experiment: Antiviral activity against HIV1 3B infected in human MT2 cells assessed as p24 antigen level at their respective CC50 concentration after 4 days by ELISA
Format: functional, organism-based
measurement kind: EC50

>>> value("C=C(COCCc1ccccc1)[C@@H]1CC[C@]2(C(=O)N[C@@H](CC(C)C)C(=O)O)CC[C@]3(C)[C@H](CC[C@@H]4[C@@]5(C)CC[C@H](O)C(C)(C)[C@@H]5CC[C@]43C)[C@@H]12")
"Not Active"
>>> value("C=C(COCCC)[C@@H]1CC[C@]2(C(=O)N[C@@H](CC(C)C)C(=O)O)CC[C@]3(C)[C@H](CC[C@@H]4[C@@]5(C)CC[C@H](O)C(C)(C)[C@@H]5CC[C@]43C)[C@@H]12")
"Not Active"
>>> value("C=C(CO)[C@@H]1CC[C@]2(C(=O)N[C@@H](CC(C)C)C(=O)O)CC[C@]3(C)[C@H](CC[C@@H]4[C@@]5(C)CC[C@H](O)C(C)(C)[C@@H]5CC[C@]43C)[C@@H]12")
"Not Active"
